Below: compounds with Kd recorded for Receptor-interacting serine/threonine-protein kinase 1 (Homo sapiens, UniProt Q13546) in separate published works.

[[record]]
compound = "C[C@H](Oc1cc(-c2n[nH]c(Nc3cnccn3)c2C(N)=O)ccc1NS(=O)(=O)CC(F)(F)F)c1ccc(Cl)cc1"
reported_metric = "Kd"
reported = "> 30 µM"

[[record]]
compound = "CC(C)n1nc(-c2ccc(NS(=O)(=O)C(F)F)c(O[C@@H](C)c3ccc(F)cc3)c2)c2c(N)ncc(-c3cnn(C4CCOCC4)c3)c21"
reported_metric = "Kd"
reported = "> 10 µM"


The measured Kd that CCS(=O)(=O)Nc1ccc(-c2n[nH]c(Nc3cnccn3)c2C(N)=O)cc1 showed for Receptor-interacting serine/threonine-protein kinase 1 (Homo sapiens, UniProt Q13546) is > 30 µM

Readout Kd for CCS(=O)(=O)Nc1ccc(-c2n[nH]c(Nc3cccc(OC)n3)c2C(N)=O)cc1OCc1ccc(F)cc1 , test system Receptor-interacting serine/threonine-protein kinase 1 (Homo sapiens, UniProt Q13546), was > 30 µM

// compound Cc1ccc(CS(=O)(=O)Nc2ccc(-c3n[nH]c(Nc4ccccn4)c3C(N)=O)cc2)cc1 , assay Receptor-interacting serine/threonine-protein kinase 1 (Homo sapiens, UniProt Q13546), Kd value: > 30 µM

Considering CCS(=O)(=O)Nc1ccc(-c2n[nH]c(Nc3ccnc(OC)c3)c2C(N)=O)cc1OCc1ccc(F)cc1 , its Kd with Receptor-interacting serine/threonine-protein kinase 1 (Homo sapiens, UniProt Q13546) was recorded as > 30 µM

Kd value, target or system Receptor-interacting serine/threonine-protein kinase 1 (Homo sapiens, UniProt Q13546), for CCS(=O)(=O)Nc1ccc(-c2n[nH]c(Nc3cnn(C)c3)c2C(N)=O)cc1 : > 30 µM

Record Cc1cnc(Nc2[nH]nc(-c3ccc(NS(=O)(=O)CC(F)(F)F)c(OCc4ccc(Cl)c(F)c4)c3)c2C(N)=O)cn1 has Receptor-interacting serine/threonine-protein kinase 1 (Homo sapiens, UniProt Q13546) Kd equal to > 30 µM

Hey, Receptor-interacting serine/threonine-protein kinase 1 (Homo sapiens, UniProt Q13546) data for C[C@H](Oc1cc(-c2nn(C)c3c(-c4cnn(C5CCC(F)(F)CC5)c4)cnc(N)c23)ccc1NS(=O)(=O)C(F)F)c1ccc(F)cc1 : Kd came out at > 10 µM

So the reported Kd for C[C@H](Oc1cc(-c2nn(C)c3c(-c4cc(C#N)n(C)c4)cnc(N)c23)ccc1NS(=O)(=O)C(F)F)c1ccc(F)cc1 , on Receptor-interacting serine/threonine-protein kinase 1 (Homo sapiens, UniProt Q13546), turned out to be > 10 µM

Summary line: C[C@H](Oc1cc(-c2nn(C)c3c(-c4cnn(C5CCC(F)(F)C5)c4)cnc(N)c23)ccc1NS(=O)(=O)C(F)F)c1ccc(F)cc1 (some centres unmarked) , Receptor-interacting serine/threonine-protein kinase 1 (Homo sapiens, UniProt Q13546), reported Kd = > 10 µM

// compound C[C@H](Oc1cc(-c2nn(C)c3c(-c4cnn(C5CCN(C)C(C)(C)C5)c4)cnc(N)c23)ccc1NS(=O)(=O)C(F)F)c1ccc(Cl)cc1 (some centres unmarked) , assay Receptor-interacting serine/threonine-protein kinase 1 (Homo sapiens, UniProt Q13546), Kd value: > 10 µM

Entry CCS(=O)(=O)Nc1ccc(-c2n[nH]c(Nc3cnc(C)cn3)c2C(N)=O)cc1OCc1ccc(F)c(Cl)c1 : Kd on Receptor-interacting serine/threonine-protein kinase 1 (Homo sapiens, UniProt Q13546) = > 30 µM

The reported Receptor-interacting serine/threonine-protein kinase 1 (Homo sapiens, UniProt Q13546) Kd of C[C@H](Oc1cc(-c2n[nH]c(Nc3cc(C(C)(C)F)on3)c2C(N)=O)ccc1NS(=O)(=O)C(F)F)c1ccc(F)cc1 is > 30 µM

* * *

Collected set of Kd measured with Receptor-interacting serine/threonine-protein kinase 1 (Homo sapiens, UniProt Q13546) across studies.

Known Kd results, listed for orientation:
[[record]]
compound_structure = "COc1cc(-c2cnc(N)c3c(-c4ccc(NS(=O)(=O)C(F)F)c(O[C@@H](C)c5ccc(F)cc5)c4)nn(C)c23)ccn1"
reported_metric = "Kd"
reported = "> 10 µM"

[[record]]
compound_structure = "NC(=O)c1c(-c2ccc(NS(=O)(=O)CC(F)F)c(OCc3ccc(F)cc3)c2)n[nH]c1Nc1cnccn1"
reported_metric = "Kd"
reported = "> 30 µM"

[[record]]
compound_structure = "COc1cnc(Nc2[nH]nc(-c3ccc(NS(=O)(=O)C(F)F)c(OCc4ccc(Cl)cc4)c3)c2C(N)=O)cn1"
reported_metric = "Kd"
reported = "> 30 µM"

[[record]]
compound_structure = "Cn1nc(-c2ccc(NS(=O)(=O)C(F)F)c(OCc3ccc(Cl)c(F)c3)c2)c2c(N)ncc(-c3cnn(C4CCOCC4)c3)c21"
reported_metric = "Kd"
reported = "> 10 µM"

[[record]]
compound_structure = "CCS(=O)(=O)Nc1ccc(-c2n[nH]c(Nc3ccccn3)c2C(N)=O)cc1OCc1ccccc1"
reported_metric = "Kd"
reported = "> 30 µM"

[[record]]
compound_structure = "CCS(=O)(=O)Nc1ccc(-c2nn(C)c3c(-c4cnn(C5CCOCC5)c4)cnc(N)c23)cc1O[C@@H](C)c1ccc(F)cc1"
reported_metric = "Kd"
reported = "> 10 µM"

[[record]]
compound_structure = "C[C@H](Oc1cc(-c2nn(C)c3c(-c4ccn(C)c4)cnc(N)c23)ccc1NS(=O)(=O)C(F)F)c1ccc(F)cc1"
reported_metric = "Kd"
reported = "> 10 µM"

[[record]]
compound_structure = "CC(=O)N1CCC(n2cc(-c3cnc(N)c4c(-c5ccc(NS(=O)(=O)C(F)F)c(O[C@@H](C)c6ccc(F)cc6)c5)nn(C)c34)cn2)CC1"
reported_metric = "Kd"
reported = "> 10 µM"

[[record]]
compound_structure = "CCS(=O)(=O)Nc1ccc(-c2n[nH]c(Nc3ccccn3)c2C(N)=O)c(OCc2ccc(F)cc2)c1"
reported_metric = "Kd"
reported = "> 30 µM"

[[record]]
compound_structure = "C[C@H](Oc1cc(-c2nn(C)c3c(-c4ccc(C(F)(F)F)nc4)cnc(N)c23)ccc1NS(=O)(=O)C(F)F)c1ccc(F)cc1"
reported_metric = "Kd"
reported = "> 10 µM"


We next turn to a different compound, shown below.
Looking up C[C@H](Oc1cc(-c2n[nH]c(Nc3cc(C4(C)COC4)on3)c2C(N)=O)ccc1NS(=O)(=O)C(F)F)c1ccc(F)cc1 , I found its Kd recorded as > 30 µM

* * *

Literature compilation of Kd measurements on Receptor-interacting serine/threonine-protein kinase 1 (Homo sapiens, UniProt Q13546).

[[record]]
compound = "CC1C(n2cc(-c3cnc(N)c4c(-c5ccc(NS(=O)(=O)C(F)F)c(O[C@@H](C)c6ccc(F)cc6)c5)nn(C)c34)cn2)CN1C (stereo partly drawn)"
assay_system = "Receptor-interacting serine/threonine-protein kinase 1 (Homo sapiens, UniProt Q13546)"
reported_metric = "Kd"
reported = "> 10 µM"

[[record]]
compound = "COCC(Oc1cc(-c2n[nH]c(Nc3cc(C)on3)c2C(N)=O)ccc1NS(=O)(=O)C(F)F)c1ccc(F)cc1 (racemic)"
assay_system = "Receptor-interacting serine/threonine-protein kinase 1 (Homo sapiens, UniProt Q13546)"
reported_metric = "Kd"
reported = "> 30 µM"


// below: Kd requested for another compound
Entry C[C@H](Oc1cc(-c2nn(C)c3c(C#N)cnc(N)c23)ccc1NS(=O)(=O)C(F)F)c1ccc(F)cc1 — recorded Kd = > 10 µM

* * *

Compiled from multiple publications: pKd readings for Receptor-interacting serine/threonine-protein kinase 1 (Homo sapiens).
pKd: −log10 of the molar value.

# count of solved cases: 5
[[record]]
molecule = "NC(=O)c1c(-c2ccc(NS(=O)(=O)CC(F)(F)F)c(OCc3ccc(F)cc3)c2)n[nH]c1Nc1ccc(C(F)(F)F)nc1"
reported_metric = "pKd"
reported = "< 4.52"

[[record]]
molecule = "CCS(=O)(=O)Nc1ccc(-c2n[nH]c(Nc3cnccn3)c2C(N)=O)cc1O[C@@H](C)c1ccc(F)cc1"
reported_metric = "pKd"
reported = "< 4.52"

[[record]]
molecule = "C[C@H](Oc1cc(-c2nn(C)c3c(-c4cnn(C5CC(C)(C)N(C)C(C)(C)C5)c4)cnc(N)c23)ccc1NS(=O)(=O)C(F)F)c1ccc(F)cc1"
reported_metric = "pKd"
reported = "< 5.00"

[[record]]
molecule = "NC(=O)c1c(-c2ccc(NS(=O)(=O)C(F)F)c(OCc3ccc(Cl)cc3)c2)n[nH]c1Nc1cnc(C(F)(F)F)cn1"
reported_metric = "pKd"
reported = "< 4.52"

[[record]]
molecule = "CCS(=O)(=O)Nc1ccc(-c2nn(C)c3c(-c4cccnc4)cnc(N)c23)cc1OCc1ccc(F)cc1"
reported_metric = "pKd"
reported = "< 5.00"


Form field pKd for item Cn1nc(-c2ccc(NS(=O)(=O)C(F)F)c(OCc3ccc(F)cc3)c2)c2c(N)nccc21 on Receptor-interacting serine/threonine-protein kinase 1 (Homo sapiens): < 5.00

The molecule C[C@H](Oc1cc(-c2nn(C)c3c(-c4cnn(C5CCCNCC5)c4)cnc(N)c23)ccc1NS(=O)(=O)C(F)F)c1ccc(F)cc1 (stereo partly drawn) , tested on Receptor-interacting serine/threonine-protein kinase 1 (Homo sapiens), showed pKd of < 5.00
